- System: Bacillus subtilis DB104 (SP-AmyQ fusion secretion)
- experiment_description: AmyQ secretion efficiency, weighted average sort bin (1 = best secretion, 10 = worst) (bin number (weighted average, 1-10)); higher = lower secretion efficiency
Form field: AmyQ secretion efficiency (one value per entry).
The reply should be a number, written without any unit.

Solved entries (count: 2):
>>> print(df.to_string())
                      query_sequence  value_measured
0      MQRKRLLTIYIMLLGLIAWFPGAAQAEEK            1.93
1  MTTTSIFVITCVMAASLTLGSLLPAGYASAKED            3.58

Turning now to a further record.
Suppose we examine the sequence `MKSKGSIMACLILFSFTITTFINTETASAFSN` ; what AmyQ secretion efficiency value has been reported?
4.22
